So I've got a bunch of compounds here, and I need their pIC50 values.
Target: HTL11 (Striga hermonthica)
Sequence (A0A0M4AS18 1-268): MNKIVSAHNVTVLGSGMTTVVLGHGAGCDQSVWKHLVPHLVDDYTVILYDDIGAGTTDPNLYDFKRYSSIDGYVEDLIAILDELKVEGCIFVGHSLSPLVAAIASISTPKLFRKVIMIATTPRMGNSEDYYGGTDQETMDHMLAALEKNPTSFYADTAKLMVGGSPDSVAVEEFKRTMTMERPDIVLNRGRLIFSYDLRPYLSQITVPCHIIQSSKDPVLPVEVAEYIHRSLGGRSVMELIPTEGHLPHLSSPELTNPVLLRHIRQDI
// scale note: pIC50 = -log10(conc_M); give the bare number

CC1=CC(OC=C2C(=O)OC3C4=C(CCCC4(C)C)CC23)OC1=O (stereo not shown) [5-Ddeoxystriqol, 5-deoxystrigol, reference compound] has a reported pIC50 of 5.80

CC1=CC(OC(=O)NCc2ccccc2)OC1=O (stereo not shown) [Comparison Compound 1, reference compound] has a reported pIC50 of 6.18

CCCCOc1ccc(S(=O)(=O)N2CCN(C(=O)OC3C=C(C)C(=O)O3)CC2)cc1 (stereo not shown) [Compound 1] has a reported pIC50 of 5.74

---

Molecular target: UniProtKB A0A0M4APJ4
Sequence (A0A0M4APJ4 1-272): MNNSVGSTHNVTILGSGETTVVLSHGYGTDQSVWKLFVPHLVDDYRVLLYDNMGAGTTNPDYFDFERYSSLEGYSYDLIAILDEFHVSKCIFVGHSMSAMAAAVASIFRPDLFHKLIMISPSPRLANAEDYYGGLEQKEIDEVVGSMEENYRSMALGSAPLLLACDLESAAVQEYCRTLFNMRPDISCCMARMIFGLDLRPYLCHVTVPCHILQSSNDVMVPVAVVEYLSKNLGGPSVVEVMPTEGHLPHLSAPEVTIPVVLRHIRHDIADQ
test.readout: IC50 (µM)
Unit µM implied. Number only.

CC1=CC(OC=C2C(=O)OC3C4=C(CCCC4(C)C)CC23)OC1=O (stereo not shown) [5-Ddeoxystriqol, 5-deoxystrigol, reference compound] has a reported IC50 of 0.36

CCCCOc1ccc(S(=O)(=O)N2CCN(C(=O)OC3C=C(C)C(=O)O3)CC2)cc1 (stereo not shown) [Compound 1] has a reported IC50 of 1.1

---

Target: HTL7 (Striga hermonthica)
Sequence (A0A0M3PNA2 1-271): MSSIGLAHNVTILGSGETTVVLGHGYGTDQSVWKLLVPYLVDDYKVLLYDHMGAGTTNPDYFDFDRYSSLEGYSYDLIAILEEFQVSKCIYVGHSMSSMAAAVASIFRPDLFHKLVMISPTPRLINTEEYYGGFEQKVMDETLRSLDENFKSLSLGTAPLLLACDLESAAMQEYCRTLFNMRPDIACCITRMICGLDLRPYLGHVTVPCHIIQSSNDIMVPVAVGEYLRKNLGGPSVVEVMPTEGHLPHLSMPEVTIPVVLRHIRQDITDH
test.readout: IC50

With HTL7 (Striga hermonthica) as the test system, CCCCOc1ccc(S(=O)(=O)N2CCN(C(=O)OC3C=CC(=O)O3)CC2)cc1 (stereo not shown) showed IC50 of 750 nM

With HTL7 (Striga hermonthica) as the test system, CC1=CC(OC=C2C(=O)OC3C4=C(CCCC4(C)C)CC23)OC1=O (stereo not shown) [5-Ddeoxystriqol, 5-deoxystrigol, reference compound] showed IC50 of 120 nM

With HTL7 (Striga hermonthica) as the test system, CC1=CC(OC(=O)NCc2ccccc2)OC1=O (stereo not shown) [Comparison Compound 1, reference compound] showed IC50 of > 10000 nM

With HTL7 (Striga hermonthica) as the test system, CCCCOc1ccc(S(=O)(=O)N2CCN(C(=O)OC3C=C(C)C(=O)O3)CC2)cc1 (stereo not shown) showed IC50 of 310 nM

---

So I've got a bunch of compounds here, and I need their IC50 values.

With HTL9 (Striga hermonthica, UniProt A0A0M4AGW0) as the test system, CCCCOc1ccc(S(=O)(=O)N2CCN(C(=O)OC3C=C(C)C(=O)O3)CC2)cc1 (stereo not shown) showed IC50 of > 10 µM

With HTL9 (Striga hermonthica, UniProt A0A0M4AGW0) as the test system, CCCCOc1ccc(S(=O)(=O)N2CCN(C(=O)OC3C=CC(=O)O3)CC2)cc1 (stereo not shown) showed IC50 of > 10 µM

With HTL9 (Striga hermonthica, UniProt A0A0M4AGW0) as the test system, CC1=CC(OC(=O)NCc2ccccc2)OC1=O (stereo not shown) [Comparison Compound 1, reference compound] showed IC50 of > 10 µM

With HTL9 (Striga hermonthica, UniProt A0A0M4AGW0) as the test system, CC1=CC(OC=C2C(=O)OC3C4=C(CCCC4(C)C)CC23)OC1=O (stereo not shown) [5-Ddeoxystriqol, 5-deoxystrigol, reference compound] showed IC50 of 1.2 µM

---

Molecular target: HTL10 (Striga hermonthica, UniProt A0A0M4AH20)
Sequence (A0A0M4AH20 1-268): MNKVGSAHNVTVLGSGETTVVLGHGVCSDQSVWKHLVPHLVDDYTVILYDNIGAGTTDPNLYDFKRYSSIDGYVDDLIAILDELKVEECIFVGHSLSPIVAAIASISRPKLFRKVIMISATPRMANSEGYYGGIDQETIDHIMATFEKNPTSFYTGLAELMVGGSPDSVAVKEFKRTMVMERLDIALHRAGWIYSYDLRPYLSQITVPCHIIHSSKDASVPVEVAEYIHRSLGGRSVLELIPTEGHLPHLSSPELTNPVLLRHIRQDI
pIC50: −log10 of the molar value.
So I've got a bunch of compounds here, and I need their pIC50 values.

CC1=CC(OC(=O)NCc2ccccc2)OC1=O (stereo not shown) [Comparison Compound 1, reference compound] has a reported pIC50 of < 5.00

CC1=CC(OC=C2C(=O)OC3C4=C(CCCC4(C)C)CC23)OC1=O (stereo not shown) [5-Ddeoxystriqol, 5-deoxystrigol, reference compound] has a reported pIC50 of 6.21

CCCCOc1ccc(S(=O)(=O)N2CCN(C(=O)OC3C=C(C)C(=O)O3)CC2)cc1 (stereo not shown) [Compound 1] has a reported pIC50 of < 5.00

CCCCOc1ccc(S(=O)(=O)N2CCN(C(=O)OC3C=CC(=O)O3)CC2)cc1 (stereo not shown) [Compound 13] has a reported pIC50 of < 5.00

---

Target: HTL3 (Striga hermonthica)
Sequence (A0A0M3PN85 1-276): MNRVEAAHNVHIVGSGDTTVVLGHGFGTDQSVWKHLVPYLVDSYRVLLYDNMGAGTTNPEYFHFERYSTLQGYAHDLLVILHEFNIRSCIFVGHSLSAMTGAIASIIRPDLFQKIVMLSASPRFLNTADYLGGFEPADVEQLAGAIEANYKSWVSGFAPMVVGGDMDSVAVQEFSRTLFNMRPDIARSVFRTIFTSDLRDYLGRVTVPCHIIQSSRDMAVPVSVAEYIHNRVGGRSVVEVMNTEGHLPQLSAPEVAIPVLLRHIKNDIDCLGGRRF
So I've got a bunch of molecules here, and I need their pIC50 values.
// scale note: pIC50 = -log10(conc_M); give the bare number

With HTL3 (Striga hermonthica) as the test system, CCCCOc1ccc(S(=O)(=O)N2CCN(C(=O)OC3C=CC(=O)O3)CC2)cc1 (stereo not shown) showed pIC50 of 5.70

With HTL3 (Striga hermonthica) as the test system, CC1=CC(OC=C2C(=O)OC3C4=C(CCCC4(C)C)CC23)OC1=O (stereo not shown) [5-Ddeoxystriqol, 5-deoxystrigol, reference compound] showed pIC50 of 5.03

---

So I've got a bunch of compounds here, and I need their IC50 values.
Target: HTL5 (Striga hermonthica, UniProt A0A0M5I297)
Sequence (A0A0M5I297 1-271): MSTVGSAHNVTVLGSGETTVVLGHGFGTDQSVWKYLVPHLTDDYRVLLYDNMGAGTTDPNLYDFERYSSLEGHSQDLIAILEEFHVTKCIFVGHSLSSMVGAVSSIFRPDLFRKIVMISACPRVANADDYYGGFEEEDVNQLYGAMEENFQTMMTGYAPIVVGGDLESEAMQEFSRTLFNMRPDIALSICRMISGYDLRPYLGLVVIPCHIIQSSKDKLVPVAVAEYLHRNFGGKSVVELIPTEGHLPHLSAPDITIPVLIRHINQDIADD

CC1=CC(OC(=O)NCc2ccccc2)OC1=O (stereo not shown) [Comparison Compound 1, reference compound] has a reported IC50 of > 10 µM

CCCCOc1ccc(S(=O)(=O)N2CCN(C(=O)OC3C=CC(=O)O3)CC2)cc1 (stereo not shown) has a reported IC50 of > 10 µM

CC1=CC(OC=C2C(=O)OC3C4=C(CCCC4(C)C)CC23)OC1=O (stereo not shown) [5-Ddeoxystriqol, 5-deoxystrigol, reference compound] has a reported IC50 of 3.6 µM

CCCCOc1ccc(S(=O)(=O)N2CCN(C(=O)OC3C=C(C)C(=O)O3)CC2)cc1 (stereo not shown) has a reported IC50 of > 10 µM

---

test.readout: IC50

With HTL6 (Striga hermonthica, UniProt A0A0M4AUV4) as the test system, CC1=CC(OC=C2C(=O)OC3C4=C(CCCC4(C)C)CC23)OC1=O (stereo not shown) [5-Ddeoxystriqol, 5-deoxystrigol, reference compound] showed IC50 of 0.19 µM

With HTL6 (Striga hermonthica, UniProt A0A0M4AUV4) as the test system, CC1=CC(OC(=O)NCc2ccccc2)OC1=O (stereo not shown) [Comparison Compound 1, reference compound] showed IC50 of > 10 µM

With HTL6 (Striga hermonthica, UniProt A0A0M4AUV4) as the test system, CCCCOc1ccc(S(=O)(=O)N2CCN(C(=O)OC3C=C(C)C(=O)O3)CC2)cc1 (stereo not shown) showed IC50 of > 10 µM

With HTL6 (Striga hermonthica, UniProt A0A0M4AUV4) as the test system, CCCCOc1ccc(S(=O)(=O)N2CCN(C(=O)OC3C=CC(=O)O3)CC2)cc1 (stereo not shown) showed IC50 of > 10 µM
